Quick record: IC50, Receptor-type tyrosine-protein phosphatase mu (Homo sapiens).

COC(=O)C(CCCc1ccccc1)(Cc1ccc(NS(=O)(=O)O)cc1)C(=O)OC    > 500 µM

For the record CCOC(=O)C(Cc1ccc(NS(=O)(=O)O)cc1)(NC(=O)OCc1ccccc1)C(=O)OC (configuration not stated) , what value of IC50 is listed for Receptor-type tyrosine-protein phosphatase mu (Homo sapiens)? > 500 µM

* * *

# TESTED SYSTEM: Receptor-type tyrosine-protein phosphatase F (Homo sapiens, UniProt P10586)
# Sequence (P10586 whole entry): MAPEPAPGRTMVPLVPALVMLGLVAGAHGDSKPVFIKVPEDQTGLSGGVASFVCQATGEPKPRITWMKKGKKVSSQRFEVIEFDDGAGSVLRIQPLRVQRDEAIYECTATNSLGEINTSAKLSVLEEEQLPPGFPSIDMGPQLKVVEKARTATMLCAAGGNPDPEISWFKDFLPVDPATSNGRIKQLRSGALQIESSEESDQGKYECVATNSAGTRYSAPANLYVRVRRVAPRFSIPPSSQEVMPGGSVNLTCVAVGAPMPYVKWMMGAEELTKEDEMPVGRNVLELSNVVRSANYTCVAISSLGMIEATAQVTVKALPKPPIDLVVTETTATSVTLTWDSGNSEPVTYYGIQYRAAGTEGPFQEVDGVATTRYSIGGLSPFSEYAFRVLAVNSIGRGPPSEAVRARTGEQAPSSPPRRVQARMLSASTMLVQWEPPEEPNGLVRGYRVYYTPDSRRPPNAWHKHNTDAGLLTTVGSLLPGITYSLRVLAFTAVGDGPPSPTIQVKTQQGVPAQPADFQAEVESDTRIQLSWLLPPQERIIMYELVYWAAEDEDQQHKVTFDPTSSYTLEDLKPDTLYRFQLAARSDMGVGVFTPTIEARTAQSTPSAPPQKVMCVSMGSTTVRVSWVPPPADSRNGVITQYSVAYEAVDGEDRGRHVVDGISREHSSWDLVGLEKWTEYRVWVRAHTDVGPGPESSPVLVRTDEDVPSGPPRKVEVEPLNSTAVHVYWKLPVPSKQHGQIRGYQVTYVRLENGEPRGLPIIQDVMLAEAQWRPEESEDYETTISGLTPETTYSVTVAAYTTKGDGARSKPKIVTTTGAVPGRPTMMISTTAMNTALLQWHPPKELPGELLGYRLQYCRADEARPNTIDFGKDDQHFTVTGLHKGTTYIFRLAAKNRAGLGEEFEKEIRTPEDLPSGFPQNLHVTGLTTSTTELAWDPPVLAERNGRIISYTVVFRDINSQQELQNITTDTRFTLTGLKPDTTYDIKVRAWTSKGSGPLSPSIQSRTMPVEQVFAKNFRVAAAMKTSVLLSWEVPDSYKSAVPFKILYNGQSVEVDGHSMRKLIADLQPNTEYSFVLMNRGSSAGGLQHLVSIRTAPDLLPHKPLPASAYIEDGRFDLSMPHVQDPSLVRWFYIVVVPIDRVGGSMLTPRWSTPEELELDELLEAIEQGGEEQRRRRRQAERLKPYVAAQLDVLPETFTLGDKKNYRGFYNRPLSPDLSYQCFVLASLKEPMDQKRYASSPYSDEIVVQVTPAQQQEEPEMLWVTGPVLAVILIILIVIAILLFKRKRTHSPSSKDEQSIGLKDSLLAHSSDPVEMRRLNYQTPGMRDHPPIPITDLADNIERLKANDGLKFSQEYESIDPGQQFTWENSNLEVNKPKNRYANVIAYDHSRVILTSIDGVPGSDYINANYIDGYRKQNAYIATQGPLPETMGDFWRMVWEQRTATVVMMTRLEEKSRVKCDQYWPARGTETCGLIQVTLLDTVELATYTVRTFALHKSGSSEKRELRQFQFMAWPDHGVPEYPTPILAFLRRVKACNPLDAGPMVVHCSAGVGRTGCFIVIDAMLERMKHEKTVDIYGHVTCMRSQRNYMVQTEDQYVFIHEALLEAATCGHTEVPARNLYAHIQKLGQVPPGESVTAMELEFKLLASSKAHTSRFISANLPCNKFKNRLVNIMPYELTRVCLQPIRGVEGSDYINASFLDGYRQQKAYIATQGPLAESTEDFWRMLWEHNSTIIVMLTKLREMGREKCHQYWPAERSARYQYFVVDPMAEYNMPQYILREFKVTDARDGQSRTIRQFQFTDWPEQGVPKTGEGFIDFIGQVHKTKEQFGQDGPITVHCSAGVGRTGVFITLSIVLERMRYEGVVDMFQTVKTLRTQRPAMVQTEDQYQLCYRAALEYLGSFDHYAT
# METHOD NOTES: Inhibition of LAR2
MEASURED ENDPOINT: IC50

// below: answered compounds
CCOC(=O)CC(Cc1ccc(NS(=O)(=O)O)cc1)(C(=O)OC)C(=O)OC    > 500 µM
COC(=O)C(CCCc1ccccc1)(Cc1ccc(NS(=O)(=O)O)cc1)C(=O)OC    > 500 µM

Now take the following compound into account.
// query IC50 value for entry CCOC(=O)C(Cc1ccc(NS(=O)(=O)O)cc1)(NC(=O)OCc1ccccc1)C(=O)OC (stereo not drawn) 472 µM

* * *

# TESTED SYSTEM: Tyrosine-protein phosphatase non-receptor type 2 (Homo sapiens, UniProt P17706)
# Sequence (P17706 whole entry): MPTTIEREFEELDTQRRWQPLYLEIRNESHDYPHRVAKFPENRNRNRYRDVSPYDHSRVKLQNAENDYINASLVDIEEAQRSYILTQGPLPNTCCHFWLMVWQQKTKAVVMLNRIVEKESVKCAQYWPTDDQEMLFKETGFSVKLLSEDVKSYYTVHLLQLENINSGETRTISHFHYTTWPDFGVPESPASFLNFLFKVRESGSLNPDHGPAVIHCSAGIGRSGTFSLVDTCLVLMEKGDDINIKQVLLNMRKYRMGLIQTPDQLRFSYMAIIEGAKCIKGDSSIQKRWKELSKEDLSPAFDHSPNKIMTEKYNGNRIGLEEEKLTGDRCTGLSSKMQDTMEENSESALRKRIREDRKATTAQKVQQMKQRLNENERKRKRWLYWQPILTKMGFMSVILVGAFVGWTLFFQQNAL
# METHOD NOTES: Inhibition of TCPTP38
MEASURED ENDPOINT: IC50 (µM)
Write the answer as a number in µM, unit excluded.

CCOC(=O)C(Cc1ccc(NS(=O)(=O)O)cc1)(NC(=O)OCc1ccccc1)C(=O)OC (stereo not drawn)    78
CCOC(=O)CC(Cc1ccc(NS(=O)(=O)O)cc1)(C(=O)OC)C(=O)OC    109

Form field: IC50 recorded for `COC(=O)C(CCCc1ccccc1)(Cc1ccc(NS(=O)(=O)O)cc1)C(=O)OC` with Tyrosine-protein phosphatase non-receptor type 2 (Homo sapiens, UniProt P17706) (enter value) 15.3

* * *

The compounds below have reported pIC50 for Receptor-type tyrosine-protein phosphatase beta (Homo sapiens).
Please treat pIC50 as minus the base-10 logarithm of the molar concentration.

COC(=O)C(Cc1ccc(NS(=O)(=O)O)cc1)(Cc1cccc(OC)c1)C(=O)OC    6.48
COC(=O)C(Cc1ccc(NS(=O)(=O)O)cc1)(Cc1ccc(C(=O)O)cc1)C(=O)OC    6.85

Consider the compound `COC(=O)C(Cc1ccc(NS(=O)(=O)O)cc1)(Cc1cccc(NS(=O)(=O)O)c1)C(=O)OC` and give its measured pIC50. 7.00

What pIC50 value was documented for this compound, CCOC(=O)C(Cc1ccc(NS(=O)(=O)O)cc1)(NC(=O)OC(C)(C)C)C(=O)OC (stereo not given) ? 6.35

// pIC50 lookup, key: `COc1cccc(CC(Cc2ccc(NS(=O)(=O)O)cc2)(c2nc(C)no2)c2nc(C)no2)c1` 6.64

* * *

# TESTED SYSTEM: Tyrosine-protein phosphatase non-receptor type 1 (Homo sapiens, UniProt P18031)
# Sequence (P18031 whole entry): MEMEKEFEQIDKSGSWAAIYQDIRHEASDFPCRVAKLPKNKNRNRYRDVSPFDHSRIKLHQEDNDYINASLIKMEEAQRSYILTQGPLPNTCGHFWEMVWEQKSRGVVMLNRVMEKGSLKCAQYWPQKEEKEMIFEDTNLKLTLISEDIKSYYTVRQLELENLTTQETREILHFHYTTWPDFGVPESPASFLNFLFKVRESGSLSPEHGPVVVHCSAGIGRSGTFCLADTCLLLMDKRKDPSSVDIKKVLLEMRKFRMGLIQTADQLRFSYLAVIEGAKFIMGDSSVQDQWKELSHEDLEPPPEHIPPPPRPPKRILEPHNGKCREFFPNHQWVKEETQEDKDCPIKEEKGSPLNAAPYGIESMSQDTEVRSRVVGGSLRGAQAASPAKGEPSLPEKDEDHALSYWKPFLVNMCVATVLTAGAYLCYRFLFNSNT
Listed here: items and their measured pIC50.
// returns pIC50 (minus log10 of molar concentration), number only

COC(=O)C(Cc1ccccc1)(Cc1ccc(NS(=O)(=O)O)cc1)C(=O)OC    5.21

Alright, here's another compound for you.
Quick check: pIC50 of `CCOC(=O)CC(Cc1ccc(NS(=O)(=O)O)cc1)(C(=O)OC)C(=O)OC` ? 4.79

* * *

Observed IC50 values for Receptor-type tyrosine-protein phosphatase beta (Homo sapiens) are listed in what follows.
State just the number; it will be interpreted in nM.

Observe how each entry below is paired with its result.
CCOC(=O)C(CCNC(=O)OC(C)(C)C)(Cc1ccc(NS(=O)(=O)O)cc1)C(=O)OC (stereo not given)    90
COC(=O)c1cccc(CC(Cc2ccc(NS(=O)(=O)O)cc2)(C(=O)OC)C(=O)OC)c1    290
COC(=O)c1ccc(CC(Cc2ccc(NS(=O)(=O)O)cc2)(C(=O)OC)C(=O)OC)cc1    410
Cc1noc(C(Cc2ccc(NS(=O)(=O)O)cc2)(Cc2cccc(C#N)c2)c2nc(C)no2)n1    210
COc1ccc(CC(Cc2ccc(NS(=O)(=O)O)cc2)(c2nc(C)no2)c2nc(C)no2)cc1    340
CCOC(=O)CC(Cc1ccc(NS(=O)(=O)O)cc1)(C(=O)OC)C(=O)OC    230

Query the reported IC50 for Receptor-type tyrosine-protein phosphatase beta (Homo sapiens); item: `COC(=O)CCCC(Cc1ccc(NS(=O)(=O)O)cc1)(C(=O)OC)C(=O)OC` 380

Query IC50 on Receptor-type tyrosine-protein phosphatase beta (Homo sapiens) for `COC(=O)C(Cc1ccncc1)(Cc1ccc(NS(=O)(=O)O)cc1)C(=O)OC` 570

Field: IC50 (Receptor-type tyrosine-protein phosphatase beta (Homo sapiens)). Entry: `COC(=O)C(COCc1ccccc1)(Cc1ccc(NS(=O)(=O)O)cc1)C(=O)OC` 270

Hello, I am looking for reported IC50 with Receptor-type tyrosine-protein phosphatase beta (Homo sapiens) for `COC(=O)C(Cc1ccc(NS(=O)(=O)O)cc1)C(=O)OC` . Could you help? 1000
